Test system: DMS-114 complex spheroids with HUVEC/MSC, growth % test/control
measurement_notes: Anticancer human tumor DMS-114 cell line growth inhibition [AhR];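 further: spheroids exposed to agents for 7 days before readout; 100% = DMSO vehicle control wells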
study_conditions: second compound 3.16 µM; first compound 1 µM; hits give low values
Item-by-item account of viability, T/C
Field: numeric (%). Do not append units.

Form field: reported viability, T/C of CC1COCCN1c1cc(-c2ccnn2C)c2ccnc(-c3ccn[nH]3)c2n1 (stereo not drawn) + Cc1ccccc1N=Nc1ccc(NC(=O)c2ccnn2C)c(C)c1
37

New cases:
# query: viability, T/C of entry CC1(C)CCC(CN2CCN(c3ccc(C(=O)NS(=O)(=O)c4ccc(NCC5CCOCC5)c([N+](=O)[O-])c4)c(Oc4cnc5[nH]ccc5c4)c3)CC2)=C(c2ccc(Cl)cc2)C1 + Cc1cncc(-c2nc(NCCc3c[nH]c4ccccc34)c3ncn(C(C)C)c3n2)c1
103

Recorded viability, T/C for CC1COCCN1c1cc(C2(S(C)(=N)=O)CC2)nc(-c2ccnc3[nH]ccc23)n1 (stereo not drawn) + Cc1ccccc1N=Nc1ccc(NC(=O)c2ccnn2C)c(C)c1 , please?
95.4

---

# Lookup of reported viability, T/C keyed by entry
System: DMS-114 complex spheroids with HUVEC/MSC, growth % test/control
measurement_notes: Anticancer human tumor DMS-114 cell line growth inhibition [AhR];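 further: spheroids exposed to agents for 7 days before readout; 100% = DMSO vehicle control wells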
study_conditions: second compound 1 µM; first compound 3.16 µM; hits give low values
Kindly answer with a numeric value in %, unit omitted.

Examples with answers:
Recorded viability, T/C for O=C(c1cc(Cc2n[nH]c(=O)c3ccccc23)ccc1F)N1CCN(C(=O)C2CC2)CC1 + Cc1ccccc1N=Nc1ccc(NC(=O)c2ccnn2C)c(C)c1 , please?
102

Reported viability, T/C for COc1ccc([C@@H](O)c2cc(-c3ncnc4cc(N5CCOCC5)ccc34)c(F)cc2Cl)nn1 + Cc1ccccc1N=Nc1ccc(NC(=O)c2ccnn2C)c(C)c1 : what is it?
129

Please give the measured viability, T/C for this compound: O=C(C=Cc1cccc(S(=O)(=O)Nc2ccccc2)c1)NO + Cc1ccccc1N=Nc1ccc(NC(=O)c2ccnn2C)c(C)c1
26.4

***
Looking for the measured viability, T/C of CC1(C)CCC(CN2CCN(c3ccc(C(=O)NS(=O)(=O)c4ccc(NCC5CCOCC5)c([N+](=O)[O-])c4)c(Oc4cnc5[nH]ccc5c4)c3)CC2)=C(c2ccc(Cl)cc2)C1 + Cc1cncc(-c2nc(NCCc3c[nH]c4ccccc34)c3ncn(C(C)C)c3n2)c1 , can you help?
110

Data request, read-out viability, T/C, for CC1(C)CCC(CN2CCN(c3ccc(C(=O)NS(=O)(=O)c4ccc(NCC5CCOCC5)c([N+](=O)[O-])c4)c(Oc4cnc5[nH]ccc5c4)c3)CC2)=C(c2ccc(Cl)cc2)C1 + CC(CO)NC(=O)c1cc(-c2ccc(Cl)cc2)nn(-c2cnn(C)c2)c1=O
102

Recorded viability, T/C for COc1cc(C2c3cc4c(cc3C(OC3OC5COC(C)OC5C(O)C3O)C3COC(=O)C23)OCO4)cc(OC)c1O (stereo unspecified) + CC(CO)NC(=O)c1cc(-c2ccc(Cl)cc2)nn(-c2cnn(C)c2)c1=O , please?
22.7

Endpoint output: viability, T/C of CC(C)c1c(-c2ccccc2)nc2c(C#N)c[nH]n2c1=O + Cc1ccccc1N=Nc1ccc(NC(=O)c2ccnn2C)c(C)c1 . Value?
95.3

Value lookup for viability, T/C; key = CC1COCCN1c1cc(C2(S(C)(=N)=O)CC2)nc(-c2ccnc3[nH]ccc23)n1 (stereo unspecified) + Cc1cncc(-c2nc(NCCc3c[nH]c4ccccc34)c3ncn(C(C)C)c3n2)c1
77.3
